Taken from patent US7563766B2.

Test system: chick aortic arches
Assay: Chick aortic arch vessel sprouting assay
Type: cell-based
Conditions: statement covers both migration and sprouting assays
Method: Chick aortic arch assay—The aortic arch of 13-day-old chick embryos was removed and placed in RPMI 1640. After removal of surrounding connective tissue, transverse sections of the arch were made (1 mm). The resulting aortic rings were carefully attached to the bottom of a 48-well plate, one ring per well, with 20-30 μl of Matrigel (Collaborative Biomedical Products). […] Sprouting was scored in a blind assessment by an observer using 10× magnification on an Olympus microscope. […]
Ends that are not written are not given here.
property: activity in the assays (endothelial cell migration and vessel sprouting)

substance="Tβ4^13-43: proteolytic fragment of naturally occurring Tβ4, residues 13-43 (DKSKLKKTETQEKNPLPSKETIEQEKQAGES; Thymosin beta-4; UniProt P62328 14-44, looked up, fragment)" reported_measurement="generally highly active"
substance="Tβ4^20-48: synthetic, amino acid residues 20-43 of SEQ ID NO: 1 (TETQEKNPLPSKETIEQEKQAGES; listed as Bos taurus)" reported_measurement="generally highly active"
substance="Tβ4^1-28: proteolytic fragment of naturally occurring Tβ4, residues 1 to KN (SDKPDMAEIEKFDKSKLKKTETQEKN; not fully specified; Thymosin beta-4; UniProt P62328 2-27, looked up, fragment)" reported_measurement="generally highly active"
substance="Tβ4^18-19: synthetic, amino acid residues 13-19 of SEQ ID NO: 1 (DKSKLKK; listed as Bos taurus)" reported_measurement=inactive
substance="Tβ4^1-8: proteolytic fragment of naturally occurring Tβ4, acSDKP DM (Ac-SDKPDM; UniProt P62328 2-7, looked up, fragment)" reported_measurement=inactive
substance="Tβ4^10-28: synthetic, amino acid residues 10-28 of SEQ ID NO: 1 (EKFDKSKLKKTETQEKNPL; listed as Bos taurus)" reported_measurement="generally highly active"
substance="LKKTETQ [Peptide T-3]" reported_measurement="generally highly active"
substance="Tβ4^Ala: naturally occurring β-thymosin, acADKP variant of Tβ4 (ADKPDMAEIEKFDKSKLKKTETQEKNPLPSKETIEQEKQAGES; Thymosin beta-4 N-terminal acetyl; UniProt P62328 2-44, looked up, variant S1A)" reported_measurement=active
substance="thymosin β4-sulfoxide (SDKPDMAEIEKFDKSKLKKTETQEKNPLPSKETIEQEKQAGES; Thymosin beta-4 methionine sulfoxide; UniProt P62328 2-44, looked up) [Tβ4^(O), sulfoxide form prepared from the naturally occurring peptide]" reported_measurement=active
substance="Tβ4^7-43: proteolytic fragment of naturally occurring Tβ4, residues 7-43 (AEIEKFDKSKLKKTETQEKNPLPSKETIEQEKQAGES; Thymosin beta-4; UniProt P62328 8-44, looked up, fragment)" reported_measurement="generally highly active"
substance="Tβ10: naturally occurring β-thymosin with conserved actin-binding domain (ADKPDMGEIASFDKAKLKKTETQEKNTLPTKETIEQEKRSEIS; UniProt P63313 2-44, looked up)" reported_measurement=active
